Measured values drawn from patent US20260042753A1 for this set.

- TESTED TARGET: mutant cKIT (560-576 and V654A) in GIST430/654 cell line (Homo sapiens (Human), UniProt P10721, DEL560-576/V654A)
- Sequence (P10721 other isoform, or with tags, fused parts or gaps V654A/del 1-25/del 560-576 limits assumed): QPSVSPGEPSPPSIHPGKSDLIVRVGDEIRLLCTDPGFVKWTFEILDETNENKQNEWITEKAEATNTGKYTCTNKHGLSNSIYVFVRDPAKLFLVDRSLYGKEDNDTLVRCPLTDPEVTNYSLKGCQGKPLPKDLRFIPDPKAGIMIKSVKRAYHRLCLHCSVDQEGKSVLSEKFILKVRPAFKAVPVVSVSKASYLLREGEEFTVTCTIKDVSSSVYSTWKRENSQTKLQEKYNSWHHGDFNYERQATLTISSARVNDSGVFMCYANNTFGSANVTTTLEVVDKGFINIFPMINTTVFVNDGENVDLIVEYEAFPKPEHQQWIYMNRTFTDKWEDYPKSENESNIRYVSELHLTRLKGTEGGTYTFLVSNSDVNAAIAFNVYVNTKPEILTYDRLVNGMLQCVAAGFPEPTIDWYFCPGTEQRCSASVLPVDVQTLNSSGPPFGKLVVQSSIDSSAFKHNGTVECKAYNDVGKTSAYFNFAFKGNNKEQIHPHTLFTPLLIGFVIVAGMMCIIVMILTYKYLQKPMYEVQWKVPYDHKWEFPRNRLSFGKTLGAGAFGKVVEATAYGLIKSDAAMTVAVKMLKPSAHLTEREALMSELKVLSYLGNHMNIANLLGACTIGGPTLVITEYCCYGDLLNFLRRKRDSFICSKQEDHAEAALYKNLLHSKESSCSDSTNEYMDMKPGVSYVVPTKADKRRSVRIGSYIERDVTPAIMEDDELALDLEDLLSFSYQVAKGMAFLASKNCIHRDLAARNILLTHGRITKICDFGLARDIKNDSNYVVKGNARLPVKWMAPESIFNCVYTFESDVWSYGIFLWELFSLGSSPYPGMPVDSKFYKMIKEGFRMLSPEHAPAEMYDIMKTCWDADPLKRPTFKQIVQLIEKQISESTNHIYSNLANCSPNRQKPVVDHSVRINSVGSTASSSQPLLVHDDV
- RUN DESCRIPTION: Cellular testing of cKIT mutant inhibitors: phospho-Y307-cKIT Luminex assay in GIST430/654 cells
- Assay type: cell-based
- CONDITION SET: Table 1; cKIT autophosphorylation, compounds 45 min; read-out: GIST 430/654 IC50
READOUT TYPE: log10(IC50) (log10 of the value in nM)
# log10 transformed; quantity=IC50; unit=nM

// returns reported log10(IC50) for input COCCOc1cc2[nH]nc(-c3cc(-c4ccc(C(=O)N5CCN(C6COC6)CC5)c(C)c4)no3)c2cc1F [A193]
1.86

Also, COCCOc1ccc2c(-c3cc(-c4ccc(C(=O)N5CCC[C@@H]5C(C)(C)O)cc4)no3)n[nH]c2c1 [A2] please.
2.40

Also, COCCOc1cc2[nH]nc(-c3cc(-c4ccc(C(=O)N5CC[C@H]5C(C)(C)O)cc4)on3)c2cc1F [A148] please.
1.85

Also, COCCOc1cc2[nH]nc(-c3cc(-c4ccc(C(=O)N5CCOC[C@@H]5CO)cc4)no3)c2cc1Cl [A66] please.
1.72

Also, COCCOc1cc2[nH]nc(-c3cc(-c4ccc(C(=O)N5CC[C@H](F)C5)cc4)no3)c2cc1F [A32] please.
1.59

Also, COCCOc1cc2[nH]nc(-c3cc(-c4ccc(C(=O)N5CCC6(CCOCC6)C5)cc4)no3)c2cc1F [A159] please.
1.32

Also, COCCOc1cc2[nH]nc(-c3cc(-c4ccc(C(=O)N(C)C)cc4)no3)c2cc1C#N [A6] please.
2.18

Also, COCCOc1cc2[nH]nc(-c3cc(-c4ccc(C(=O)N5CC(N6CCOCC6)C5)c(C)c4)no3)c2cc1F [A171] please.
1.80

Also, COc1cc2[nH]nc(-c3cc(-c4ccc(C(=O)N5CCC[C@H]5CS(C)(=O)=O)cc4)no3)c2cc1F [A117] please.
2.00

Also, COCCOc1cc2[nH]nc(-c3cc(-c4ccc(C(=O)N5CC[C@H]5CO)cc4)no3)c2cc1F [A95] please.
1.57

Also, COCCOc1cc2[nH]nc(-c3cc(-c4ccc(C)nc4)no3)c2cc1F [A22] please.
3.34

Also, COCCOc1cc2[nH]nc(-c3cc(-c4ncc(C(=O)N(C)C)s4)no3)c2cc1F [A92] please.
2.56

Also, COCCOc1cc2[nH]nc(-c3cc(-c4ccc(C(=O)N5C[C@@H]6CN(C7COC7)C[C@@H]6C5)cc4)no3)c2cc1F [A216] please.
1.43

Also, COCCOc1cc2[nH]nc(-c3cc(-c4ccc(C(=O)N5CCOC[C@H]5CO)cc4)no3)c2cc1Cl [A67] please.
1.97

Also, COCCOc1cc2[nH]nc(-c3cc(-c4ccc(C(=O)N5CC6(COC6)C5)cc4)no3)c2cc1F [A74] please.
1.72

Also, COCCOc1cc2[nH]nc(-c3cc(-c4ccc(C(=O)N5CCN(CC6CC6)CC5)cc4)no3)c2cc1F [A179] please.
1.93

----------
Field: pIC50. Provide a value for each of the compounds that follow.
- TESTED TARGET: c-Kit(V654A) (Homo sapiens, UniProt P10721, V654A)
- RUN DESCRIPTION: c-Kit(V654A) assay
- Assay type: biochemical
- CONDITION SET: Table 1; 200 μM ATP
Please express pIC50 as -log10 of the molar concentration.

// returns reported pIC50 for input COCCOc1cc2[nH]nc(-c3cc(-c4ncc(C(=O)N5CC(F)C5)s4)no3)c2cc1F
7.16

Also, COCCOc1cc2[nH]nc(-c3cc(-c4ccc(C(=O)N5CC(F)C5)cc4)no3)c2cc1F please.
8.68

Also, COCCOc1cc2[nH]nc(-c3cc(-c4ccc(C(=O)N5CC6(CCOCC6)C5)cc4)no3)c2cc1F please.
9.28

Also, COCCOc1cc2[nH]nc(-c3cc(-c4ccc(C(=O)N5CC(C)(N)C5)cc4)no3)c2cc1F please.
8.80

----------
- TESTED TARGET: c-Kit(V654A) (Homo sapiens, UniProt P10721, V654A)
- RUN DESCRIPTION: c-Kit(V654A) assay
- Format: biochemical
- CONDITION SET: Table 2, corresponding triazole derivatives
READOUT TYPE: pIC50
Please express pIC50 as -log10 of the molar concentration.

// returns reported pIC50 for input COCCOc1cc2[nH]nc(-c3cn(-c4ccc(C(=O)N5CC[C@H]5C(C)(C)O)cc4)nn3)c2cc1F [reference compound]
8.12

Also, COCCOc1cc2[nH]nc(-c3cn(-c4ccc(C(=O)N5CC(N6CCOCC6)C5)c(C)c4)nn3)c2cc1F [reference compound] please.
7.89

Also, COCCOc1cc2[nH]nc(-c3cn(-c4ccc(N5CCN(C)CC5)cc4)nn3)c2cc1F [reference compound] please.
7.82

Also, COCCOc1cc2[nH]nc(-c3cc(-c4ccc(C(=O)N5CCC[C@H]5CO)cc4)no3)c2cc1F [drawing 57, reference compound] please.
8.07

----------
- TESTED TARGET: c-Kit(V654A) (Homo sapiens, UniProt P10721, V654A)
- RUN DESCRIPTION: c-Kit(V654A) assay
- Format: biochemical
- CONDITION SET: Table 1; 200 μM ATP
READOUT TYPE: IC50 (nM)
Just the number please, in nM, no unit attached.

// returns reported IC50 for input COCCOc1cc2[nH]nc(-c3cc(-c4ccc(C(=O)N5CC6(C5)CS(=O)(=O)C6)cc4)no3)c2cc1F
0.71

Also, O=C(c1ccc(-c2cc(-c3n[nH]c4cc(OCCO)c(F)cc34)on2)cc1)N1CC(N2CCOCC2)C1 please.
0.86

Also, COCCOc1cc2[nH]nc(-c3cc(-c4ccc(C(=O)N5CCN(C6COC6)CC5)nc4)no3)c2cc1F please.
16

Also, COCCOc1cc2[nH]nc(-c3cc(-c4ccc(C(=O)NCCN(C)C)cc4)no3)c2cc1F please.
2.6

----------
- TESTED TARGET: c-Kit(V654A) (Homo sapiens, UniProt P10721, V654A)
- RUN DESCRIPTION: c-Kit(V654A) assay
- Assay type: biochemical
- CONDITION SET: Table 1; 200 μM ATP
- Experimental: c-Kit(V654A) (N-terminal GST-tagged, recombinant human c-Kit, amino acids 544-end containing the V654A mutation) is incubated with 8 mM MOPS pH 7.0, 0.2 mM EDTA, 250 μM GGMEDIYEFMGGKKK, 10 mM MgAcetate and [gamma-33P-ATP](specific activity approx. 500 cpm/pmol, concentration 200 μM). The reaction is initiated by the addition of the MgATP mix. After incubation for 40 minutes at room temperature, the reaction is stopped by the addition of 3% phosphoric acid solution. […]
READOUT TYPE: IC50 (nM)
Just the number please, in nM, no unit attached.

// returns reported IC50 for input COCCOc1cc2[nH]nc(-c3cc(-c4ccc(C(=O)N5CCOC[C@@H]5CS(C)(=O)=O)cc4)no3)c2cc1F
1.1

Also, COCCOc1cc2[nH]nc(-c3cc(-c4ccc(N5CC[C@H]6[C@@H]5CCN6C)cc4)no3)c2cc1F (relative stereo) please.
1.9

Also, COCCOc1cc2[nH]nc(-c3cc(-c4ccc(C(=O)N5CC(OC)C5)cc4)no3)c2cc1F please.
1.3

Also, COCCOc1cc2[nH]nc(-c3cc(-c4ccc(C(=O)N5CC[C@@H]6COC[C@@H]6C5)cc4)no3)c2cc1F (relative stereo) please.
0.76

Also, COCCOc1cc2[nH]nc(-c3cc(-c4ccc(C(=O)N(C)C5CC5)cc4)no3)c2cc1F please.
1.1

Also, COCCOc1cc2[nH]nc(-c3cc(-c4ccc(C(=O)N5CC(c6ccccn6)C5)cc4)no3)c2cc1F please.
0.69

Also, COCCOc1cc2[nH]nc(-c3cc(-c4ccc(C(=O)N5CC[C@H]6CNC(=O)[C@H]65)cc4)no3)c2cc1F (relative stereo) please.
0.57

----------
- TESTED TARGET: mutant cKIT (560-576 and V654A) in GIST430/654 cell line (Homo sapiens (Human), UniProt P10721, DEL560-576/V654A)
- RUN DESCRIPTION: Cellular testing of cKIT mutant inhibitors: phospho-Y307-cKIT Luminex assay in GIST430/654 cells
- Assay type: cell-based
- CONDITION SET: Table 1; cKIT autophosphorylation, compounds 45 min; read-out: GIST 430/654 IC50
Friendly reminder: IC50 below 400 nM is 1.0, at or above is 0.0.

In the record for [2H]C1([2H])N(C(=O)c2ccc(-c3cc(-c4n[nH]c5cc(OCCO)c(F)cc45)on3)cc2)C([2H])([2H])C([2H])([2H])N(C2COC2)C1([2H])[2H] , is IC50 less than 400 nM?
1.0

Also, COCCOc1cc2[nH]nc(-c3cc(-c4ccc(C(=O)N5CCS(=N)(=O)CC5)cc4)no3)c2cc1F please.
0.0

Also, COCCOc1cc2[nH]nc(-c3cc(-c4ccc(C(=O)N5CCC[C@@H]5CO)nc4)no3)c2cc1F please.
0.0

Also, COCCOc1cc2[nH]nc(-c3cc(-c4ccc(C(=O)N5CC(N6CCN(C)CC6)C5)cc4)no3)c2cc1Cl please.
1.0

Also, COCCOc1cc2[nH]nc(-c3cc(-c4ccc(N5CCOCC5)nc4)no3)c2cc1F please.
1.0

Also, CC(C)(O)C1CCCN1C(=O)c1ccc(-c2cc(-c3n[nH]c4cc(C(F)(F)F)ccc34)on2)cc1 (stereo not shown) please.
1.0

Also, COC(CO)COc1cc2[nH]nc(-c3cc(-c4ccc(C(=O)N(C)C)cc4)no3)c2cc1F (stereo not shown) please.
0.0
